Target: ABL1 (T315I) (Homo sapiens, UniProt P00519, T315I)
Test: Luminescence-based ABL kinase assay (ADP-Glo, 300 μM ATP), T315I mutant
Type: biochemical
QUANTITY NAME: IC50 (nM)
Give bare numbers, in nM.

{"COMPOUND": "COc1c(-c2c[nH]c3nc(NC(=O)[C@@H]4C[C@@H]4F)ccc23)ccc2ncnn12 [Compound 134]", "IC50 / nM": 227}
{"COMPOUND": "COc1ncnc(OC)c1-c1c[nH]c2nc(NC(=O)NCCN3CCNCC3)ccc12 [Compound 138]", "IC50 / nM": 140}
{"COMPOUND": "COc1c(F)cc(F)c(OC)c1-c1c[nH]c2nc(NC(=O)[C@@H]3C[C@@H]3F)ccc12 [Compound 120]", "IC50 / nM": 60.8}
{"COMPOUND": "COc1c(-c2c[nH]c3nc(NC(=O)[C@@H]4C[C@@H]4F)ccc23)ccn2ccnc12 [Compound 114]", "IC50 / nM": 150}
{"COMPOUND": "COc1ncccc1-c1c[nH]c2nc(NC(=O)[C@H]3C[C@H]3F)ccc12 [Compound 26]", "IC50 / nM": 68.4}

// query IC50 value for entry CCOc1ncccc1-c1n[nH]c2nc(NC(=O)[C@@H]3C[C@@H]3F)ccc12 [Compound 64]
140

---

I'd be grateful if you could share measured IC50 for these entries.
Target: ABL1 (T315I) (Homo sapiens, UniProt P00519, T315I)
Assay: Luminescence-based ABL kinase assay (ADP-Glo, 300 μM ATP), T315I mutant
Type: biochemical
Could you kindly put the unit after your number?

Completed entries (count: 4):
{"STRUCTURE AS SMILES": "COc1ncnc(OC)c1-c1c[nH]c2nc(NC(=O)[C@@H]3C[C@@H]3F)ccc12", "OBSERVED RESULT": "17.8 nM"}
{"STRUCTURE AS SMILES": "CCOc1ncccc1-c1c[nH]c2nc(NC(=O)[C@@H]3C[C@@H]3F)ccc12", "OBSERVED RESULT": "43 nM"}
{"STRUCTURE AS SMILES": "O=C(Nc1ccc2c(-c3cccc(O)c3)c[nH]c2n1)C1CC1", "OBSERVED RESULT": "9.74 nM"}
{"STRUCTURE AS SMILES": "COc1cc2cc[nH]c2cc1-c1c[nH]c2nc(NC(=O)C3CC3)ccc12", "OBSERVED RESULT": "28.6 nM"}

Next item in the queue.
Return IC50 measured with ABL1 (T315I) (Homo sapiens, UniProt P00519, T315I) given this molecule: "O=C(Nc1ccc2c(-c3ccccc3OC3CC3)n[nH]c2n1)[C@@H]1C[C@@H]1F"
6.36 nM
